This section presents compounds with their documented IC50 values.
SYSTEM_UNDER_TEST: recombinant human NaV1.8 stably transfected HEK cells (Homo sapiens)
Construct: expressed in transfected cells; host or cells: HEK cells, stably transfected
TEST_SUMMARY: Compound profiling on NaV1.8, human NaV1.8 cell line, SyncroPatch384PE automated patch clamp assay (Example 102, first set of compounds, Table 16)
Type: cell-based
DETAILS: inactivated state block (P2 measurement), human NaV1.8 HEK cells, Table 16 (first set of compounds), read-out: P2IC50

COMPOUND | IC50
Cc1cc(F)ccc1Oc1nnc(C(F)(F)F)c(-c2ccccc2)c1C(=O)Nc1cccc([S@@](C)(=N)=O)c1 | 200 to 500 nM
COc1ccc(Oc2nnc(C(F)(F)F)c(C)c2C(=O)Nc2cccc(S(C)(=O)=O)c2)c(C)c1F | ≤ 20 nM
Cc1cc(F)ccc1Oc1nnc(C(F)(F)F)c(C)c1C(=O)Nc1cccc(S(C)(=N)=O)c1 (stereo not shown) | 20 to 40 nM
COC(=O)C12CC(NC(=O)c3cc(C(F)(F)F)cnc3Oc3ccc(C#N)cc3OC)(C1)C2 | 200 to 500 nM

----------
SYSTEM_UNDER_TEST: recombinant human NaV1.8 stably transfected HEK cells (Homo sapiens)
Construct: expressed in transfected cells; host or cells: HEK cells, stably transfected
TEST_SUMMARY: Compound profiling on NaV1.8, human NaV1.8 cell line, SyncroPatch384PE automated patch clamp assay (Example 102, first set of compounds, Table 16)
Type: cell-based
DETAILS: inactivated state block (P2 measurement), human NaV1.8 HEK cells, Table 16 (first set of compounds), read-out: P2IC50

MOLECULE | IC50
COc1cc(C#N)ccc1Oc1nnc(-c2ccc(C#N)cc2)c(C)c1C(=O)Nc1cccc([S@](C)(=N)=O)c1 | 40 to 200 nM
COC(=O)c1cccc(NC(=O)c2c(Oc3ccc(C#N)cc3OC)nnc(C(F)(F)F)c2C)c1 | 40 to 200 nM
COc1c(Oc2nnc(C(F)(F)F)c(C)c2C(=O)Nc2cccc(C(N)=O)c2)ccc(F)c1F | ≤ 20 nM
CS(=O)(=O)c1cccc(NC(=O)c2cc(C(F)(F)F)cnc2OC2CCOC2)c1 (stereo not drawn) | 200 to 500 nM
Cc1c(C(F)(F)F)nnc(Oc2ccc(OC(F)(F)F)cc2F)c1C(=O)Nc1cccc(S(C)(=N)=O)c1 (single isomer, unassigned) [Compound 1496] | ≤ 20 nM
COc1cc(C#N)ccc1Oc1nnc(-c2cccc(C#N)c2)c(C)c1C(=O)Nc1cccc(S(C)(=N)=O)c1 (stereo not drawn) | 200 to 500 nM

----------
SYSTEM_UNDER_TEST: recombinant human NaV1.8 stably transfected HEK cells (Homo sapiens)
Construct: expressed in transfected cells; host or cells: HEK cells, stably transfected
TEST_SUMMARY: Compound profiling on NaV1.8, human NaV1.8 cell line, SyncroPatch384PE automated patch clamp assay (Example 115, third set of compounds, Table 27)
Type: cell-based
DETAILS: resting state block (P1 measurement), human NaV1.8 HEK cells, Table 27 (third set of compounds), read-out: P1 IC50
Procedure: Compound Profiling on NaV1.8 Human NaV1.8 Cell Line SyncroPatch384PE Assay Compounds were tested on recombinant human NaV1.8 stably transfected HEK cells using the SyncroPatch384PE system, an automated patch clamp device. […] Whole cell patch clamp recordings were conducted according to Nanion's standard procedure for SyncroPatch384PE®. […] The potency of the compounds was assessed on two read-outs, resting state block (P1 measurement) or inactivated state block (P2 measurement) to obtain IC50 values. […]
pIC50: −log10 of the molar value.
RESULT_TYPE: pIC50

COMPOUND | RESULT_TYPE | ENDPOINT_RESULT
Cc1cc(F)ccc1Oc1nnc(C(F)(F)F)cc1C(=O)Nc1cccc(-n2cncn2)c1 [Compound 9] | pIC50 | < 5.30
Cc1cc(C(F)(F)F)ccc1Oc1nnc(C(F)(F)F)cc1C(=O)Nc1cccc(S(C)(=O)=O)c1 [Compound 42] | pIC50 | ≥ 6.70
COc1cc(F)ccc1Oc1nnc(C)cc1C(=O)Nc1cccc(S(C)(=N)=O)c1 (stereo not drawn) [Compound 94] | pIC50 | 5.30 to 6.00
NS(=O)(=O)c1cccc(NC(=O)c2cc(C(F)(F)F)nnc2Oc2cc(F)ccc2Cl)c1 [Compound 118] | pIC50 | ≥ 6.70
Cc1cc(F)ccc1Oc1nnc(C(F)(F)F)cc1C(=O)Nc1cccc2nncn12 [Compound 134] | pIC50 | < 5.30
COc1cc(F)ccc1Oc1nnc(C(F)(F)F)cc1C(=O)Nc1ccc(C(N)=O)cc1 [Compound 27] | pIC50 | ≥ 6.70

----------
SYSTEM_UNDER_TEST: recombinant human NaV1.8 stably transfected HEK cells (Homo sapiens)
Construct: expressed in transfected cells; host or cells: HEK cells, stably transfected
TEST_SUMMARY: Compound profiling on NaV1.8, human NaV1.8 cell line, SyncroPatch384PE automated patch clamp assay (Example 115, third set of compounds, Table 27)
Format: cell-based
DETAILS: inactivated state block (P2 measurement), human NaV1.8 HEK cells, Table 27 (third set of compounds), read-out: P2 IC50

CHEMICAL_STRING | IC50
Cc1cc(F)ccc1Oc1nnc(C(F)(F)F)cc1C(=O)Nc1cccc(-n2cncn2)c1 | 1000 to 5000 nM
Cc1cc(F)ccc1Oc1nnc(C(F)(F)F)cc1C(=O)Nc1ccc(C)c(S(C)(=O)=O)c1 | 201 to 500 nM
COc1cc(C#N)ccc1Oc1nnc(C(F)(F)F)cc1C(=O)Nc1cccc(C(N)=O)c1 | ≤ 200 nM
CS(=O)(=O)c1cccc(NC(=O)c2cc(C(F)(F)F)nnc2Oc2cc(F)ccc2Cl)c1 | 201 to 500 nM
O=C1NCc2ccc(NC(=O)c3cc(C(F)(F)F)nnc3Oc3ccc(F)cc3Cl)cc21 | > 5000 nM
Cc1cc(OC(F)(F)F)ccc1Oc1nnc(C(F)(F)F)cc1C(=O)Nc1ccc(C(N)=O)cc1 | ≤ 200 nM
Cc1cc(F)ccc1Oc1nnc(C(F)(F)F)cc1C(=O)Nc1cccc([S@@](C)(=N)=O)c1 | 201 to 500 nM
Cc1cc(F)ccc1Oc1nnc(C(F)(F)F)cc1C(=O)Nc1cccc(CS(C)(=O)=O)c1 | > 5000 nM
Cc1cc(C#N)ccc1Oc1nnc(C(F)(F)F)cc1C(=O)Nc1cccc(C(N)=O)c1 | 201 to 500 nM
Cc1cc(F)ccc1Oc1nnc(C(F)(F)F)cc1C(=O)Nc1cccc(S(C)(=O)=O)n1 | > 5000 nM
COc1cc(F)ccc1Oc1nnc(C(F)(F)F)cc1C(=O)Nc1cccc(CS(C)(=O)=O)c1 | 1000 to 5000 nM
COc1cc(F)ccc1Oc1nnc(C(F)(F)F)cc1C(=O)Nc1cccc(S(=O)(=O)C(C)C)c1 | 201 to 500 nM
CS(=O)(=O)c1cccc(NC(=O)c2cc(C(F)(F)F)nnc2Oc2ccc(F)cc2Cl)c1 | ≤ 200 nM

----------
This section presents molecules with their documented IC50 values.
SYSTEM_UNDER_TEST: recombinant human NaV1.8 stably transfected HEK cells (Homo sapiens, UniProt Q9Y5Y9)
Construct: expressed in transfected cells; host or cells: HEK cells, stably transfected
Sequence (Q9Y5Y9 whole entry): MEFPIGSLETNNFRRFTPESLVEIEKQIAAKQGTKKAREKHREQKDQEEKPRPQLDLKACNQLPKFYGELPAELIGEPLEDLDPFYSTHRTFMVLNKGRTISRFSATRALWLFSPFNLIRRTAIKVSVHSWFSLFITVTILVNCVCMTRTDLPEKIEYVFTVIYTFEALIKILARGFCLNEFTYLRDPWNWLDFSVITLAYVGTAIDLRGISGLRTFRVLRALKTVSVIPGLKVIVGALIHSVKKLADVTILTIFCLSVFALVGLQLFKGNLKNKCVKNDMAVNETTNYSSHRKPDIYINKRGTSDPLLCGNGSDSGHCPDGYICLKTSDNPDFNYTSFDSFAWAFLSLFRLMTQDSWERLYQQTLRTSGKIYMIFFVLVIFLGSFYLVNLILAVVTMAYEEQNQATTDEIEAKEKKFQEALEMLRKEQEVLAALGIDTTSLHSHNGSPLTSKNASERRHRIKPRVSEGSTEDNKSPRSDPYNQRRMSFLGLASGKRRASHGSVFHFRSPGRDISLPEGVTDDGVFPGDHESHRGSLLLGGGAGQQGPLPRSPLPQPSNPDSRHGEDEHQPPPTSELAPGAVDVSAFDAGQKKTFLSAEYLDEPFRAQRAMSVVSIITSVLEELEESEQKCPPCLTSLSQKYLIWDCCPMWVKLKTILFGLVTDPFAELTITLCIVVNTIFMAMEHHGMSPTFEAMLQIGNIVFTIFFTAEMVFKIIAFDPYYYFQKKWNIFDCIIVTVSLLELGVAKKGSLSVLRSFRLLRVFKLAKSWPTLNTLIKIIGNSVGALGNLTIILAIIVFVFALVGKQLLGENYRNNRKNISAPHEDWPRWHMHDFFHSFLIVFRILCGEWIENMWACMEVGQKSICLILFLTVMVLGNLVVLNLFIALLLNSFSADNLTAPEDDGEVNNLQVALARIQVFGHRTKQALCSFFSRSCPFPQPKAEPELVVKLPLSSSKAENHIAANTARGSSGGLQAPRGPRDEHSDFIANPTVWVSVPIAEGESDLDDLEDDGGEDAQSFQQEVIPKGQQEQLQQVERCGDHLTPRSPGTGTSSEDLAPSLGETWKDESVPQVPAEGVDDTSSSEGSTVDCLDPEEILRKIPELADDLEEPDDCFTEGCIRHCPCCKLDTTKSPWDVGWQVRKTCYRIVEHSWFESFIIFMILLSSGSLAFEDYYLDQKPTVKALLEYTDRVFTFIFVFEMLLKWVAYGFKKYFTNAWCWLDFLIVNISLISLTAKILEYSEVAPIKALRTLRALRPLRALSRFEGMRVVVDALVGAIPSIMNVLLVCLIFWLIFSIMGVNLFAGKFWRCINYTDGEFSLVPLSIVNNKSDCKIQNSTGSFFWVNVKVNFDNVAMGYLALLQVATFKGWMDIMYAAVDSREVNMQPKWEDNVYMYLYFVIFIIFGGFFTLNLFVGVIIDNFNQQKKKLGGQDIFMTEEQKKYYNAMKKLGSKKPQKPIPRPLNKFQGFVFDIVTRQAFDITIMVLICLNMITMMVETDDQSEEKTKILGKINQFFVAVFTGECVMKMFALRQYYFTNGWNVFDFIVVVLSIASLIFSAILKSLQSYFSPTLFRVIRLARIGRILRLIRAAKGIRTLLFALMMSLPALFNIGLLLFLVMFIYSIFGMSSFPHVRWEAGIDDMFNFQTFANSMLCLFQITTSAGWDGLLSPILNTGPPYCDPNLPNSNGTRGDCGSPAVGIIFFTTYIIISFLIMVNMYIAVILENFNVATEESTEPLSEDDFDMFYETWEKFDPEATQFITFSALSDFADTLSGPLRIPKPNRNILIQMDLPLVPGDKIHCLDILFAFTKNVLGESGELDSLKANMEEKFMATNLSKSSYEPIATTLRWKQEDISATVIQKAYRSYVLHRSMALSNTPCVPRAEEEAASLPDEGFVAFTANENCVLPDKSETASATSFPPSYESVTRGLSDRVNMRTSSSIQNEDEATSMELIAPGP
TEST_SUMMARY: Compound profiling on NaV1.8, human NaV1.8 cell line, SyncroPatch384PE automated patch clamp assay (Example 102, first set of compounds, Table 16)
Assay type: cell-based
DETAILS: inactivated state block (P2 measurement), human NaV1.8 HEK cells, Table 16 (first set of compounds), read-out: P2IC50
RESULT_TYPE: IC50

MOLECULE | ENDPOINT_RESULT
Cc1nc(OC2CCC2)ccc1Oc1ncc(C(F)(F)F)cc1C(=O)Nc1cccc(S(C)(=N)=O)c1 (centres unmarked) | 40 to 200 nM
CSc1cccc(Oc2ncc(C(F)(F)F)cc2C(=O)Nc2cccc(S(C)(=O)=O)c2)c1 | 40 to 200 nM
COc1cc(C#N)ccc1Oc1nnc(-c2cnc(C(F)(F)F)s2)c(C)c1C(=O)Nc1cccc(S(C)(=N)=O)c1 (centres unmarked) | ≤ 20 nM
COc1cc(C#N)ccc1Oc1nnc(-c2ccnnc2)c(C)c1C(=O)Nc1cccc(S(C)(=N)=O)c1 (centres unmarked) | 200 to 500 nM
NC(=O)c1cccc(NC(=O)c2cc(C(F)(F)F)cnc2OC2CC3C(C2)C3(F)F)c1 (centres unmarked) | 200 to 500 nM

----------
This section presents compounds with their documented IC50 values.
SYSTEM_UNDER_TEST: recombinant human NaV1.8 stably transfected HEK cells (Homo sapiens, UniProt Q9Y5Y9)
Construct: expressed in transfected cells; host or cells: HEK cells, stably transfected
TEST_SUMMARY: Compound profiling on NaV1.8, human NaV1.8 cell line, SyncroPatch384PE automated patch clamp assay (Example 102, first set of compounds, Table 16)
Format: cell-based
DETAILS: inactivated state block (P2 measurement), human NaV1.8 HEK cells, Table 16 (first set of compounds), read-out: P2IC50

COMPOUND | IC50
Cc1c(Oc2nnc(C(F)(F)F)c(C)c2C(=O)Nc2cccc(S(C)(=N)=O)c2)ccc(OC(F)(F)F)c1F (centres unmarked) | ≤ 20 nM
Cc1cc(C(F)(F)F)c(C)cc1Oc1ncc(C(F)(F)F)cc1C(=O)Nc1cccc(S(C)(=O)=O)c1 | 200 to 500 nM
COc1cc(C#N)ccc1Oc1nnc(-c2ccc(C)cc2)c(C)c1C(=O)Nc1cccc([S@@](C)(=N)=O)c1 | 40 to 200 nM
COc1c(Oc2nnc(C(F)(F)F)c(C)c2C(=O)Nc2cccc(S(C)(=N)=O)c2)ccc(Cl)c1F (single isomer, unassigned) [Compound 1490] | ≤ 20 nM
COc1cc(C#N)ccc1Oc1nnc(-c2ccn(C)n2)c(C)c1C(=O)Nc1cccc(S(C)(=N)=O)c1 (centres unmarked) | 200 to 500 nM
CC#Cc1nnc(Oc2ccc(F)cc2C)c(C(=O)Nc2cccc(S(C)(=N)=O)c2)c1C (centres unmarked) | 200 to 500 nM
COc1ccc(Oc2nnc(C(F)(F)F)c(C)c2C(=O)Nc2cccc(S(C)(=N)=O)c2)c(C)c1F (centres unmarked) [Compound 1504] | ≤ 20 nM
Cc1c(C(F)(F)F)nnc(Oc2ccc(OC3CCC3)c(F)c2F)c1C(=O)Nc1cccc(S(C)(=O)=O)c1 | ≤ 20 nM
Cc1cc(F)ccc1Oc1nnc(C(F)(F)F)c(C)c1C(=O)Nc1ccc(C(N)=O)cc1 | 40 to 200 nM
COc1cc(C#N)ccc1Oc1nnc(C(F)(F)F)c(C)c1C(=O)Nc1cnc(C(N)=O)s1 | 40 to 200 nM
COc1ccc(Oc2ncc(C(F)(F)F)cc2C(=O)Nc2cccc(S(C)(=N)=O)c2)cc1F (centres unmarked) | 200 to 500 nM
Cc1c(C(F)(F)F)nnc(Oc2c(F)cc(OC(F)(F)F)cc2F)c1C(=O)Nc1cccc(S(C)(=N)=O)c1 (centres unmarked) | 40 to 200 nM
COc1cc(C#N)ccc1Oc1nnc(-c2ccc(C(F)F)cc2)c(C)c1C(=O)Nc1cccc([S@@](C)(=N)=O)c1 | 20 to 40 nM
Cc1cc(F)ccc1Oc1ncc(C(F)(F)F)cc1C(=O)Nc1cccc(S(C)(=O)=O)c1 | ≤ 20 nM
